Target: Sentrin-specific protease 6 (Homo sapiens);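 further: Luminescence-based dose-response confirmatory assay of SENP6 inhibition, following up an ultra-high-throughput screen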
Sequence (Q9GZR1 whole entry): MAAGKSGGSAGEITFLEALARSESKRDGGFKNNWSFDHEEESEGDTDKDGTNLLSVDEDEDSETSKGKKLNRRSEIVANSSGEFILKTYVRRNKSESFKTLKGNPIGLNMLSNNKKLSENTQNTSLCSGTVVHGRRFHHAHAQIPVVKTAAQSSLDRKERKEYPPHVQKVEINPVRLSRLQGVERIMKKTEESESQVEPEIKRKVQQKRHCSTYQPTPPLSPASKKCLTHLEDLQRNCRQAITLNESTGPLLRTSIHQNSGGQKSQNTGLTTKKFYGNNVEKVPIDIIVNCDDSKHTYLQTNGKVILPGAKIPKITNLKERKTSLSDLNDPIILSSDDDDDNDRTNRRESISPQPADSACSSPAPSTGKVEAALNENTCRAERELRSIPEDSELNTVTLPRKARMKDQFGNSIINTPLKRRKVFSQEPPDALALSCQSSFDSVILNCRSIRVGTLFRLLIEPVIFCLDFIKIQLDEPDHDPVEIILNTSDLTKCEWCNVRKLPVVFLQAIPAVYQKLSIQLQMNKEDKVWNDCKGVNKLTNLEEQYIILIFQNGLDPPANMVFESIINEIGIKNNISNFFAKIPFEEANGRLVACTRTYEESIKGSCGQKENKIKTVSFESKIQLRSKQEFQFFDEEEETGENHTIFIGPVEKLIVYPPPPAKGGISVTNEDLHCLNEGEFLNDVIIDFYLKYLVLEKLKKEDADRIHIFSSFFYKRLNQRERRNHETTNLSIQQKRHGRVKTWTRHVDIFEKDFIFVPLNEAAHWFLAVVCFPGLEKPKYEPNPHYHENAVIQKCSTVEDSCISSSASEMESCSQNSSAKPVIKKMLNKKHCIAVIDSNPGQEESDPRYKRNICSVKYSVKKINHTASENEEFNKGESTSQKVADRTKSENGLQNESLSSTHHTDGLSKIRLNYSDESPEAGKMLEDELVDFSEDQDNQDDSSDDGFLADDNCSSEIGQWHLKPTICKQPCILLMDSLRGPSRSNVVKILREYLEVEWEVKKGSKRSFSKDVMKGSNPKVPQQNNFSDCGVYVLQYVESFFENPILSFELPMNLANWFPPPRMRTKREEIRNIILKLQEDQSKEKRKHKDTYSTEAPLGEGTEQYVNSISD
Assay type: functional
The source made the active and inactive calls.
Possible outcomes: y for active, n for inactive

1) O=C(c1ccccc1)c1coc2c1C(=O)c1ccccc1C2=O y
2) O=C(Nc1ccccc1)c1ccc(-c2ccccc2Cl)o1 n
3) Brc1ccc(NN=Nc2ccccc2)cc1 y
4) COc1ccc2c(c1)CCC(/C=N/c1ccc3c(c1)OCO3)=C2O y
5) O=C(OCC(=O)N1CCC(c2ccccc2)=N1)c1ccc([N+](=O)[O-])s1 y
